Please provide measured melting point for the entries that follow.

Completed entries (count: 2):
1. COc1ccccc1NC(=O)O/N=C/c1ccc(-c2ncn(-c3ccc(OC(F)(F)F)cc3)n2)cc1
182 to 183 °C
2. O=C(Nc1ccccc1)O/N=C/c1ccc(-c2ncn(-c3ccc(OC(F)(F)F)cc3)n2)cc1
174 to 180 °C

Batch: melting point for all items listed.
1. Cc1cccc(C)c1NC(=O)O/N=C/c1ccc2c(c1)nc(-c1ccc(OC(F)(F)F)cc1)n2C
2. CC(C)c1ccccc1NC(=O)O/N=C/c1ccc2nc(-c3ccc(OC(F)(F)F)cc3)n(C)c2c1
3. CC/C(=N\OC(=O)Nc1ccccc1C(F)(F)F)c1ccc(-c2ncn(-c3ccc(OC(F)(F)F)cc3)n2)cc1
4. CC/C(=N\OC(=O)Nc1ccccc1C(C)C)c1ccc(-c2ncn(-c3ccc(OC(F)(F)F)cc3)n2)cc1
5. O=C(Nc1ccc(Cl)cc1Cl)O/N=C/c1ccc(-c2ncn(-c3ccc(OC(F)(F)F)cc3)n2)cc1
6. O=C(Nc1ccccc1Cl)O/N=C/c1ccc(-c2ncn(-c3ccc(OC(F)(F)F)cc3)n2)cc1
7. Cc1cccc(C)c1NC(=O)O/N=C/c1ccc2nc(-c3ccc(OC(F)(F)F)cc3)n(C)c2c1

Reply |
1. 68 to 124 °C
2. 98 to 130 °C
3. 151 to 154 °C
4. 170 to 171 °C
5. 179 to 182 °C
6. 183 to 184 °C
7. 68 to 124 °C

* * *

value.kind: melting point

Completed entries (count: 2):
1) CC(C)c1ccccc1NC(=O)O/N=C/c1ccc2c(c1)nc(-c1ccc(OC(F)(F)F)cc1)n2C
93 to 130 °C
2) Cc1cccc(C)c1NC(=O)O/N=C/c1ccc2c(c1)C(=O)N(c1ccc(OC(F)(F)F)cc1)C2=O
247 to 248 °C

Batch: melting point for all items listed.
1. O=C(Nc1ccccc1C(F)(F)F)O/N=C/c1ccc(-c2ncn(-c3ccc(OC(F)(F)F)cc3)n2)cc1
2. O=C(Nc1cscc1Br)O/N=C/c1ccc(-c2ncn(-c3ccc(OC(F)(F)F)cc3)n2)cc1

Reply |
1: 179 to 180 °C; 2: 197 to 198 °C
